tested.target: SNARK (Homo sapiens, UniProt Q9H093)
Construct: 12.5 ng of recombinant SNARK was incubated with CHKtide and ATP
Sequence (Q9H093 1-628): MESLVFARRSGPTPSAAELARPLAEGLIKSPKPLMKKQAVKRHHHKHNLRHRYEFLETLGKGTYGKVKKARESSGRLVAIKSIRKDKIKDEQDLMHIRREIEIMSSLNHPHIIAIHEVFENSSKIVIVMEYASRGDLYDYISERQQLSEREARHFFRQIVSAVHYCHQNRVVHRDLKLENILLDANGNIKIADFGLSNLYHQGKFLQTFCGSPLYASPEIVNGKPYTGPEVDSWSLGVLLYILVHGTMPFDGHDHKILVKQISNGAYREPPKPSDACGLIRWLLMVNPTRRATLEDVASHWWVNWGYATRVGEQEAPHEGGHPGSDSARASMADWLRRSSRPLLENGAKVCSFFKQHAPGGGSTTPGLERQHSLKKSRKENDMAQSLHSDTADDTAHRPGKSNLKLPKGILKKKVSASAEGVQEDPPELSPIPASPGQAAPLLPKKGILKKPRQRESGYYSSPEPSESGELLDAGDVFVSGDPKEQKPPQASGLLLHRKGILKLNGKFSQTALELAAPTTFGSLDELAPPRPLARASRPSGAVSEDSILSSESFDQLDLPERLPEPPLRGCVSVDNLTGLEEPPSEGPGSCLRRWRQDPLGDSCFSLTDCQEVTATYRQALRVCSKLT
procedure.summary: In vitro luminescence SNARK kinase assay (NUAK2 Kinase Enzyme System)
measurement.context: in vitro, recombinant SNARK with CHKtide and ATP, 60 min; read-out: IC50 of SNARK kinase inhibition
pIC50: −log10 of the molar value.

compound	result.comparator	pIC50
CCN(CC)C(=S)SSC(=S)N(CC)CC	=	4.36
CCN(CC)C(=O)[S+](C)[O-] (centres unmarked)	<	3.00
CN(C)C(=S)SC(=S)N(C)C [TMTM, tetramethylthiuram monosulfide]	<	3.00
CN(C)C(=S)SSC(=S)N(C)C [TR, tetramethylthiuram disulfide]	=	4.38
CCN(CC)C(=S)S [DDC, diethyldithiocarbamate]	<	3.00

###

tested.target: SNARK (Homo sapiens)
Construct: 12.5 ng of recombinant SNARK was incubated with CHKtide and ATP; purchased Promega (Madison, WI)
Sequence (Q9H093 1-628): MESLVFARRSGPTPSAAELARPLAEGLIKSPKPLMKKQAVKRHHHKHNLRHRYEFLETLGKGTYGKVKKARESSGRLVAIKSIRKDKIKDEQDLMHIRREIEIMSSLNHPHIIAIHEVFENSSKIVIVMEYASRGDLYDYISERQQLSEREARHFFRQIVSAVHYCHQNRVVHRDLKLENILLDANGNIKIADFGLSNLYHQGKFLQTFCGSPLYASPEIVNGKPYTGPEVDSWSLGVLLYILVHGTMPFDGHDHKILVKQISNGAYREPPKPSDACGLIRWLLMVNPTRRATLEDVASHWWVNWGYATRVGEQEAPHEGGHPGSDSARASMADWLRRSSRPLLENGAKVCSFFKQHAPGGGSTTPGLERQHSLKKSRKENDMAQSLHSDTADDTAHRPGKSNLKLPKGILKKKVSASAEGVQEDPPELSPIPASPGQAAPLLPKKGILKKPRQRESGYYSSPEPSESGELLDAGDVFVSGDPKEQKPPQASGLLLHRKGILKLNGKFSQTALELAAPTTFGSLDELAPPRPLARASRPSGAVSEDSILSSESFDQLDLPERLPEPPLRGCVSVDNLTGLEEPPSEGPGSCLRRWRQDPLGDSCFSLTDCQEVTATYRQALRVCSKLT
procedure.summary: In vitro luminescence SNARK kinase assay (NUAK2 Kinase Enzyme System)
Assay type: biochemical
measurement.context: 25-250 μM ATP, 0, 20, 40 μM compound; Dixon plot; read-out: Ki for ATP
Experimental: NUAK2 Kinase Enzyme System was purchased from Promega (Madison, WI). Kinase assay was performed according to the manufacturer's protocol and the luminescence was monitored (n = 4). The mode of enzymatic inhibition was calculated bySigmaplot (Systat Software, San Jose, CA), with the best fit models determined by the Akaike Information Criterion.
pKi: −log10 of the molar value.
assay.endpoint: pKi

compound	tested.target	observed.value
CN(C)C(=S)SSC(=S)N(C)C [TR, tetramethylthiuram disulfide]	SNARK (Homo sapiens)	4.10
CCN(CC)C(=S)SSC(=S)N(CC)CC [DSF, disulfiram]	SNARK (Homo sapiens)	4.18
